Tested on: PfSIP2 AP2 domain 1 (GST-tagged)
Assay: gcPBM binding intensity (ln(normalized median fluorescence intensity)); higher = stronger DNA binding
The full ranking holds about 25,000 sequences; the median of “ln(normalized median fluorescence intensity)” is about 7.1, and the highest 2% start at about 10. The sample as a whole holds a higher share of the highest values than the screen did.
// gcPBM binding intensity (ln) lookup, one value per entry
A bare number is all that is needed in reply.

ATATCAAATTCTGAAACACACAAAATTACACCTCTA [CACACA_site169]: 7.06
GACACCCATAAATATACACACGCACAACACAAAATA [CACACA_site8944]: 7.67

### Prompt Entry TTTGTTCATATTATTGTGCACTTAAACGTAACAAAA [GTGCAC_site9505] , system PfSIP2 AP2 domain 1 (GST-tagged): what gcPBM binding intensity (ln) was measured?
### Response 10.2

### Prompt Entry AATGTACCCACACCCACACACAAACAAATATATATA [CACACA_site2751] , system PfSIP2 AP2 domain 1 (GST-tagged): what gcPBM binding intensity (ln) was measured?
### Response 7.47

### Prompt Entry ATAAAAATTGATTATACACACGCGCACCCACAACAA [CACACA_site3536] , system PfSIP2 AP2 domain 1 (GST-tagged): what gcPBM binding intensity (ln) was measured?
### Response 11.2

# credit: the supplement of paper PMC11417369
